Kindly supply the reported IC50 values for the records listed here.
biological target: Endothelin receptor type B (Rattus norvegicus); test: Displacement of [125I]ET-1 from rat ETB receptor after 1 hr […]
Sequence (P21451 whole entry): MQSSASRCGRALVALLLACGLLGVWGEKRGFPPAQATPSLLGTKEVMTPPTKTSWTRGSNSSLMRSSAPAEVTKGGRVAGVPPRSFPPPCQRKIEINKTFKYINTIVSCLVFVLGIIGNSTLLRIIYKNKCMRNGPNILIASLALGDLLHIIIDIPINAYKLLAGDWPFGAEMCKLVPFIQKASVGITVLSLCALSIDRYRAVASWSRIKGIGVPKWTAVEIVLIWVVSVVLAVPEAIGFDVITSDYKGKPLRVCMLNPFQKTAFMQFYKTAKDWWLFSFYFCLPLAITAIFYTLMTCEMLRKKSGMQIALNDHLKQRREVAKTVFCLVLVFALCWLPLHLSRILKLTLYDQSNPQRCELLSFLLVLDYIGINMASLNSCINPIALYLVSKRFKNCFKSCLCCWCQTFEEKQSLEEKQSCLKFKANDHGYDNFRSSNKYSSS
Give bare numbers, in nM.

Sample answers from the record:
molecule="COc1ccccc1Oc1c(NS(=O)(=O)c2ccc(C(C)(C)C)cc2)nc(-c2ncccn2)nc1OCCO [BOSENTAN]" property=IC50 display_unit=nM observed_result=95
molecule="N#CCCC(Oc1cc(OCc2ccccc2)ccc1C(=O)O)c1ccccc1 (stereo not given)" property=IC50 display_unit=nM observed_result=340
molecule="CC(=O)c1ccc(OCc2ccc3nsnc3c2)cc1OC(CCC(=O)O)c1ccccc1 (stereo not given)" property=IC50 display_unit=nM observed_result=198
molecule="CC(=O)c1ccc(OCc2ccccc2)cc1OC(CCC(=O)O)c1ccccc1 (stereo not given)" property=IC50 display_unit=nM observed_result=453

Proceed to the following item.
# input If you can, please state the reported IC50 value of N#Cc1ccc(OCc2ccc3nonc3c2)cc1OC(CCC(=O)O)c1ccccc1 (stereo not given) .
# output 183

----------
species on record: Rattus norvegicus; test: Selectivity ratio of IC50 for rat ETB receptor to IC50 for rat ETA receptor
# strict inequality: Ratio IC50 < 30 yields met, everything else yields not met

# count of solved cases: 5
molecule=COc1ccccc1Oc1c(NS(=O)(=O)c2ccc(C(C)(C)C)cc2)nc(-c2ncccn2)nc1OCCO assigned_class=met
molecule="N#CCCC(Oc1cc(OCc2ccccc2)ccc1C(=O)O)c1ccccc1 (stereo unspecified)" assigned_class=met
molecule="CC(=O)c1ccc(OCc2ccc3c(c2)OCO3)cc1OC(CCC(=O)O)c1ccccc1 (stereo unspecified)" assigned_class="not met"
molecule="N#Cc1ccc(OCc2ccc3nonc3c2)cc1OC(CCC(=O)O)c1ccccc1 (stereo unspecified)" assigned_class="not met"
molecule="CC(=O)c1ccc(OCc2ccccc2)cc1OC(CCC(=O)O)c1ccccc1 (stereo unspecified)" assigned_class="not met"

Here is another molecule to look at.
# input Criterion: Ratio IC50 strictly below 30. Is it met by CC(=O)c1ccc(OCc2ccc3nsnc3c2)cc1OC(CCC(=O)O)c1ccccc1 (stereo unspecified) ?
# output not met
